- experimental system: Mannose-6-phosphate isomerase (Homo sapiens) (UniProt P34949)
- Sequence (P34949 whole entry, looked up): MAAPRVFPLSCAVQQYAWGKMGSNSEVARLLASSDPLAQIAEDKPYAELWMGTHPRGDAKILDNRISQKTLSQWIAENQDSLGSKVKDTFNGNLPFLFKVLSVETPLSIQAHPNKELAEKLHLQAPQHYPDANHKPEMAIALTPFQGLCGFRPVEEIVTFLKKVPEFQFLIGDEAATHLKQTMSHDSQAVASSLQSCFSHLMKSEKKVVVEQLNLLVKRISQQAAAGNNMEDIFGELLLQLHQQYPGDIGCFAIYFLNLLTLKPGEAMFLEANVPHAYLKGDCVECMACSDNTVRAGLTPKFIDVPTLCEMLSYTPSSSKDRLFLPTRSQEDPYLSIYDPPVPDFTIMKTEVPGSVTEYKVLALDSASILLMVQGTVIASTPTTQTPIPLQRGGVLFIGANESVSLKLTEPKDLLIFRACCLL
- procedure summary: MPI inhibition at elevated mannose 6-phosphate – biochemical, fluorescence intensity, high mannose 6-phosphate, primary screen (AID 1220)
- particulars: recombinant PMI enzyme, coupled fluorescence intensity; at 20 µM
Out of some 190,000 compounds screened, about 1,300 (0.68%) were called active. Cut-off read from the data, not from the text of the source: active = inhibition above about 50%; inactive = the rest. The full list was thinned out, with actives kept by preference.
Possible outcomes: True (active), False (inactive)

{"compound": "COc1ccc2c(c1O)-c1ccccc1CCN(C)C2", "assigned class": "False"}
{"compound": "CCc1oc(C(=O)O)cc1CN(CC)CC", "assigned class": "False"}
{"compound": "O=C(O)C1C2CCC(O2)C1C(=O)Nc1ccc(O)cc1 (configuration not stated)", "assigned class": "True"}
{"compound": "CCn1cc([N+](=O)[O-])c(C(=O)NCc2ccc(Cl)cc2)n1", "assigned class": "False"}
{"compound": "O=C(O)C1C2CCC(O2)C1C(=O)Nc1ccc(F)cc1 (configuration not stated)", "assigned class": "False"}
{"compound": "COc1cccc(CNc2ccc(N3CCC(C)CC3)cc2)c1OC", "assigned class": "True"}
{"compound": "Cc1ccc(CC(=O)Nc2cccnc2)cc1", "assigned class": "False"}
{"compound": "COc1cccc(CNc2ccc(F)c(Cl)c2)c1OC", "assigned class": "False"}
{"compound": "Nc1ccccc1Nc1cc(-c2ccccc2)[nH]n1", "assigned class": "False"}
{"compound": "O=C(OCC(=O)N1CCCC1)c1ccccc1OCc1ccccc1", "assigned class": "False"}
{"compound": "CN1CCc2ccccc2C1C1CCNCC1 (configuration not stated)", "assigned class": "False"}
{"compound": "CN1CCc2cc3c(c4c2[C@H]1[C@H](O)c1ccccc1-4)OCO3", "assigned class": "False"}

###

- experimental system: Mannose-6-phosphate isomerase (Homo sapiens) (UniProt P34949)
- procedure summary: MPI inhibition at elevated mannose 6-phosphate – biochemical, fluorescence intensity, high mannose 6-phosphate, primary screen (AID 1220)
- particulars: recombinant PMI enzyme, coupled fluorescence intensity; at 20 µM
About 1,300 (0.68%) of roughly 190,000 compounds were called active. Cut-off read from the data, not from the text of the source: active = inhibition above about 50%; inactive = the rest. Only a selection was taken, and actives are over-represented in it overall.
Possible outcomes: active, inactive

{"molecule": "O=C1CN(C(=O)COC(=O)/C=C/c2ccco2)c2ccccc2N1", "assigned class": "inactive"}
{"molecule": "CCOC(=O)c1cc2occc2n1CC(=O)Nc1ccc(OC)cc1OC", "assigned class": "inactive"}
{"molecule": "CC(C)C(=O)NC(c1ccco1)c1c(O)ccc2ccccc12 (stereo not drawn)", "assigned class": "active"}
{"molecule": "COc1cc(C2Nc3ccc4ncccc4c3C3=C2C(=O)CCC3)ccc1O (stereo not drawn)", "assigned class": "inactive"}
{"molecule": "c1cncc(-c2cccnc2)c1", "assigned class": "inactive"}
{"molecule": "COc1cc(C2Nc3ccc4ncccc4c3C3=C2C(=O)CCC3)cc(OC)c1OC (stereo not drawn)", "assigned class": "active"}
{"molecule": "CCN(CC)CCNC(=O)C(C(=O)c1ccccc1)n1ccccc1=O (stereo not drawn)", "assigned class": "inactive"}
{"molecule": "Cc1cc(=O)n2ccccc2c1C#N", "assigned class": "inactive"}
{"molecule": "CCNc1nc(Cl)nc(NCCOc2ccc(C)cc2)n1", "assigned class": "inactive"}
{"molecule": "CC(C)C(=O)NC(c1ccc([N+](=O)[O-])cc1)c1c(O)ccc2ccccc12 (stereo not drawn)", "assigned class": "active"}
{"molecule": "CC(C)C(=O)NC(c1cccc([N+](=O)[O-])c1)c1c(O)ccc2ccccc12 (stereo not drawn)", "assigned class": "inactive"}
{"molecule": "CN(C(=O)c1ccccc1)c1ccc(OCC(=O)NC2CCS(=O)(=O)C2)cc1 (stereo not drawn)", "assigned class": "inactive"}
{"molecule": "CCOc1cc(C2C(C#N)=C(N)Oc3n[nH]c(-c4ccncc4)c32)cc([N+](=O)[O-])c1O (stereo not drawn)", "assigned class": "inactive"}
{"molecule": "O=C(CCN1C(=O)C2C3C=CC(C3)C2C1=O)N1CCN(c2ccc([N+](=O)[O-])cc2)CC1 (stereo not drawn)", "assigned class": "inactive"}
{"molecule": "Cn1c(C(=O)NC2CC2)cc2c(=O)n(C)c3ccccc3c21", "assigned class": "inactive"}
{"molecule": "c1cncc(-c2nn[nH]n2)c1", "assigned class": "inactive"}
{"molecule": "CC(=O)Nc1ccc(NC(=O)CCC(=O)OCC(=O)c2ccc(C)c([N+](=O)[O-])c2)cc1", "assigned class": "inactive"}
{"molecule": "COc1ccc2c(c1)CC/C2=N\\OC(=O)c1cccc(C)c1", "assigned class": "inactive"}
{"molecule": "CN(C)Cc1c(O)ccc2c3c(c(=O)oc12)CCCCC3", "assigned class": "inactive"}
{"molecule": "Cn1c(CN2CCOCC2)c(C#N)c2ccccc21", "assigned class": "inactive"}
{"molecule": "c1cncc(-c2nnc(-c3cccnc3)nn2)c1", "assigned class": "active"}
{"molecule": "Cc1ccc(-n2c(=S)[nH]c3sc4c(c3c2=O)CCc2ccccc2-4)cc1", "assigned class": "inactive"}
{"molecule": "O=c1oc2c(CN3CCOCC3)c(O)ccc2c2ccccc12", "assigned class": "inactive"}
